# Tested on: IGROV1 ovarian
# test: NCI tumour cell line growth inhibition, 48 h
Would you kindly list TGI for each of these compounds?

Please review the following examples before continuing.
CCOC(=O)C1=C(C)C2C3C(=O)OC(=O)C3C1(C)C1C(=O)OC(=O)C21 (stereo not given)    > 100 µM
COC(=O)/C(=N\Nc1nc(=S)[nH]n1N)C(C#N)c1ccc(Cl)cc1 (stereo not given)    > 100 µM
O=[N+]([O-])c1ccc(C2NC(=S)NC3c4cc([N+](=O)[O-])ccc4CCCC23)cc1 (stereo not given)    > 100 µM
CCOC(=O)C12CCC(c3c(C)cccc3C)(O1)C(C(=O)OC)=C2C(=O)OC (stereo not given)    > 10 µM

Attention now shifts to the item below.
Prompt: Item "CCOC(=O)CN1C(=O)c2c(NC(=O)C(=O)O)cccc2S1(=O)=O" with IGROV1 ovarian - TGI?
Completion: > 100 µM

* * *

# System: EKVX NSCLC
# test: NCI tumour cell line growth inhibition, 48 h; in the data active means GI50 below about 0.43 µM; inactive means the rest
Can you answer with just one of these options? active, inactive

Illustrative cases are given below, each with its answer.
CCCCNP1(NCCCC)=NP(NCCCC)(NCCCC)=NP(NCCCC)(NCCCC)=NP(NCCCC)(NCCCC)=N1    active
N#Cc1ccc(O)c(C2=NCC(c3ccc(-c4ccccc4)cc3)O2)c1 (stereo unspecified)    active
CCN(CC)CCOc1ccc(NC(=O)C(C(C)C)N2C(=O)/C(=C/c3ccc(Br)cc3)SC2=S)cc1 (stereo unspecified)    inactive
Cn1c2ccccc2c2c(=O)n(CCCC(=O)NCCc3cnc[nH]3)c3c(-c4ccccc4)nnn3c21    inactive
Cc1c(C(=O)/C=C/c2ccc(Cl)cc2)nnn1-c1ccnc2c(C(F)(F)F)cccc12    inactive

Please look at the following compound next.
Prompt: For this compound, state the assay outcome: "COc1cc(C(=O)c2cnc(-c3ccc4cc[nH]c4c3)[nH]2)cc(OC)c1OC"
Completion: active

* * *

# System: EKVX NSCLC
# test: NCI tumour cell line growth inhibition, 48 h
observation type: TGI

Please review the following examples before continuing.
CSc1nc(SC)c2c(C)c(Br)[nH]c2n1    > 100 µM
O=C1NC(c2cccc3ccccc23)Nc2ccccc21 (stereo not drawn)    > 100 µM

Attention now shifts to the item below.
Prompt: Name the recorded TGI for "O=C(N/N=C\c1ccc(Cl)cc1)Nc1cccc2ccccc12" .
Completion: > 100 µM

* * *

Would you kindly list TGI for each of these molecules?
# System: A498 renal
# test: NCI tumour cell line growth inhibition, 48 h

Please review the following examples before continuing.
C/C1=C\CC[C@@]2(C)O[C@@H]2C[C@@H]2[C@H](C/C(C)=C/CC1)OC(=O)[C@]21CO1    > 100 µM
CC(C)NC(=O)OCc1c(COC(=O)NC(C)C)c(-c2cc[n+](COC(=O)Cc3ccccc3)cc2)n2c1CCC2    > 100 µM

Attention now shifts to the item below.
Prompt: Name the recorded TGI for "O=C1C(c2ccccc2)=[N+]([O-])c2cc([N+](=O)[O-])ccc21" .
Completion: > 100 µM

* * *

# Tested on: NCI-H226 lung
# test: NCI tumour cell line growth inhibition, 48 h
Would you kindly list TGI for each of these compounds?

Please review the following examples before continuing.
Fc1ccc(-c2c(-c3ccncc3)[nH]c3cccnc23)cc1    > 25 µM
CN(C)C[C@@H]1CCn2cc(c3ccccc32)C2=C(C(=O)NC2=O)c2cn(c3ccccc23)CCO1    > 10 µM
S=C1C(CCCOCc2ccccc2)C2CCCC23CC2(CCN13)OCCS2 (centres undefined)    > 10 µM

Attention now shifts to the item below.
Prompt: Name the recorded TGI for "COc1cc(Cn2c3ccccc3c3cc(C)cc(OC)c32)cc2c1[nH]c1ccccc12" .
Completion: > 25 µM

* * *

# Test system: KM12 colon
# test: NCI tumour cell line growth inhibition, 48 h
observation type: TGI (µM)
Numbers only, in µM.

Please review the following examples before continuing.
COc1ccc2[nH]cc(C3(c4c[nH]c5ccc(OC)cc45)C(=O)Nc4ccc(Cl)cc43)c2c1    6.33
COc1ccccc1-c1ccc2c(N)c(C(=O)c3ccc4c(c3)OCO4)sc2n1    23.3

Lab note: each molecule below needs its TGI filled in.
1. C[C@H]1[C@H](C)CC[C@]2(C(=O)O)CCC3(COC(=O)/C=C/c4ccc(O)cc4)C(=CCC4[C@@]5(C)CC[C@H](O)C(C)(C)C5CC[C@]43C)[C@H]12 (stereo partly drawn)
2. Nc1nc(N)c(CCCCc2ccccc2)c(/C=C/c2ccc([N+](=O)[O-])cc2)n1
3. Cc1ccc2c(c1)C(=O)/C(=C/c1cccc(OCC(=O)c3ccc(Cl)cc3)c1)CS2

Completion:
[16.3, 10.8, 8.02]

* * *

# System: COLO 205 colon
# test: NCI tumour cell line growth inhibition, 48 h
Would you kindly list TGI for each of these compounds?

Oc1ccccc1CNCc1ccccc1O    > 100 µM
CSc1nc(SC)c2c(C)c(Br)[nH]c2n1    > 100 µM

Attention now shifts to the item below.
Prompt: Name the recorded TGI for C=C1CCCC2OC(OC)CCC12 (stereo not drawn) .
Completion: > 100 µM

* * *

# System: KM12 colon
# test: NCI tumour cell line growth inhibition, 48 h
observation type: TGI (µM)
Answers are plain numbers, in µM.

Please review the following examples before continuing.
Cc1cc2oc(=O)cc(OC/C=C3/CCC(=O)O3)c2cc1C    18
CCN(CC)CCCNc1nccc2c(C)c3[nH]c4ccncc4c(=O)c3cc12    15.5

Prompt: Item C=C1C(=O)O[C@H]2C1C[C@H](O)/C(C)=C/CC[C@@]1(C)O[C@H]21 (stereo partly specified) with KM12 colon - TGI?
Completion: 30.1

* * *

# Test system: MDA-MB-231 breast
# test: NCI tumour cell line growth inhibition, 48 h
Would you kindly list GI50 for each of these compounds?

CN1CCN(C(=O)[C@@]2(C)CC[C@]3(C)CC[C@]4(C)C(=CC[C@@H]5[C@@]6(C)CC[C@H](OC(=O)c7cccnc7)C(C)(C)[C@@H]6CC[C@]54C)[C@@H]3C2)CC1    2030 nM
Cc1cc(C(=O)CC(Cl)=C(Cl)Cl)c(Cl)cc1Cl    23400 nM
COc1ccc(C2CC(c3ccc4ccccc4c3)=NN2c2nc(O)c(C3=c4cc(Cl)ccc4=NC3=O)s2)cc1 (centres undefined)    21 nM
O=C1/C=C/[C@@H](O)[C@@H]2C[C@@H](O)C[C@H]2/C=C/CCC[C@H](CCc2ccc(NC(=S)Nc3ccc4c(c3)C(=O)OC43c4ccc(O)cc4Oc4cc(O)ccc43)cc2)O1    210 nM

Lab note: each compound below needs its GI50 filled in.
1. COc1ccc(Cl)cc1Nc1nc(C(F)(F)F)ccc1C(=O)N/N=C/c1ccccc1Cl
2. Cc1ccc2c(c1)C(=O)/C(=C/c1cccc(OCC(=O)c3ccc(Cl)cc3)c1)CS2
3. CCOP(=O)(OCC)C(NC(c1ccccc1)c1ccccc1)c1ccsc1 (centres undefined)
4. Fc1ccc(-c2c(-c3ccncc3)[nH]c3cccnc23)cc1

Completion:
1: 2090 nM; 2: 8210 nM; 3: 7050 nM; 4: > 25000 nM

Prompt: Name the recorded GI50 for C=C1C(=O)O[C@H]2[C@H]1CC/C(CNC(=O)C(C)c1ccc(CC(C)C)cc1)=C\CC[C@@]1(C)O[C@@H]21 (some centres undefined) .
Completion: 1960 nM

* * *

# System: SK-MEL-28 melanoma
# test: NCI tumour cell line growth inhibition, 48 h
Would you kindly list TGI for each of these compounds?

COc1ccccc1/C=C1\CCC(CN2CCOCC2)C1=O (stereo not drawn)    29.6 µM
Cc1c2c(n3c(nc4ccccc43)c1C#N)NCC2    > 10 µM

Attention now shifts to the item below.
Prompt: Name the recorded TGI for "COc1cc(Cn2c3ccccc3c3cc(C)cc(OC)c32)cc2c1[nH]c1ccccc12" .
Completion: > 25 µM

* * *

# Test system: MDA-MB-231 breast
# test: NCI tumour cell line growth inhibition, 48 h
observation type: log10 TGI (log10 of the value in µM)
Response schema: value (number) is log10 of TGI in units of µM.

Please review the following examples before continuing.
COc1ccc(C2CC(c3ccc4ccccc4c3)=NN2c2nc(O)c(C3=c4cc(Cl)ccc4=NC3=O)s2)cc1 (stereo not drawn)    -1.34
COc1ccc2nc3c([N+](=O)[O-])ccc4c3c(c2c1)N=CN4CCN(C)C    1.03
CCOC(=O)Nc1cc2c(c(N)n1)N=C(c1ccccc1)CN2    -2.33
O=C(CCN1CCCC1)Nc1ccc2c(Nc3ccc(Br)cc3)c3ccccc3nc2c1    0.48
CCCCCCc1cc2cc(-c3cn4ccccc4n3)c(=O)oc2cc1O    0.99
CCN(CC)CCNc1ccc(N=Nc2cnc3ccccc3c2)c2ccccc12    0.38

Lab note: each compound below needs its log10 TGI filled in.
1. CCN(CC)CCOc1ccc(NC(=O)C(C(C)C)N2C(=O)/C(=C/c3ccc(Br)cc3)SC2=S)cc1 (stereo not drawn)
2. Cc1c(C(=O)/C=C/c2ccc(Cl)cc2)nnn1-c1ccnc2c(C(F)(F)F)cccc12
3. O=C(CS(=O)c1nc2ccccc2nc1-c1ccccc1)Nc1ccc(Cl)cc1 (stereo not drawn)

Completion:
1: 0.56; 2: 1.86; 3: 1.69

Lab note: each compound below needs its log10 TGI filled in.
1. N#Cc1c2c(c(Nc3cccc(C(F)(F)F)c3)n3c1nc1ccccc13)CCCC2
2. O=C(Nc1cccc(-n2ccc3c(NC(=O)c4ccccc4)nccc32)c1)c1ccc(Cl)c(Cl)c1
3. COC1=C(OC)C(=O)C(C/C=C/c2c(Cl)nc3sccn23)=C(C)C1=O
4. COc1cccc2c1C(=O)c1c(O)c3c(c(O)c1C2=O)CC(O)(C(C)=O)CC3OC1OC(COC(C)=O)C(OC(C)=O)C(OC(C)=O)C1OC(C)=O (stereo not drawn)
5. CC(C)(CN1CCCCC1)C(=O)CC(SCCS(=O)(=O)O)c1ccccc1 (stereo not drawn)
6. Cc1cc2nc3c(C#N)c4c(c(Cl)n3c2cc1C)CCC4
7. Oc1c(Cl)c(Cl)c(O)c(-c2cnc(-c3ncc(-c4c(O)c(Cl)c(Cl)c(O)c4Cl)s3)s2)c1Cl

Completion:
1: 1.77; 2: 0.13; 3: 1.40; 4: 1.80; 5: 1.51; 6: 1.55; 7: 1.63
